All figures here come from patent US11708359B2.

Target: human MGL from HeLa cells (Homo sapiens (Human), UniProt Q99685)
Sequence (Q99685 whole entry): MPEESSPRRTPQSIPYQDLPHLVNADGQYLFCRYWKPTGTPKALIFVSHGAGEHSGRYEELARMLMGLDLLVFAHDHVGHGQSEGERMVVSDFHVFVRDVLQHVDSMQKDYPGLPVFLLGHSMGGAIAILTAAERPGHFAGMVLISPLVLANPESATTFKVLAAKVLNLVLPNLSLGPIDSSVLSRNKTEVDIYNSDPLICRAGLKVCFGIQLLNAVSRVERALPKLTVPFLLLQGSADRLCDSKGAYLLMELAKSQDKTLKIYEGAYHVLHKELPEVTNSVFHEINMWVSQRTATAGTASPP
Assay: MGL in vitro activity assay ([glycerol-1,3-3H]-oleoyl glycerol cleavage, activated carbon filter)
Assay type: biochemical
Settings: 300 nM [Glycerol-1,3-3H]-oleoyl glycerol, endogenously expressed MGL from HeLa cells, one hour incubation; read-out: MGL IC50
Description: The assay consists of combining endogenously expressed MGL from HeLa cells with test compounds, adding[glycerol-1,3-^3H]-oleoyl glycerol, incubating for one hour, and then measuring the amount of cleaved[1,3-^3H]-glycerol that passes through an activated carbon filter. The amount of cleaved, tritiated glycerol passing through the carbon filter is proportional to the activity of the MGL enzyme in a particular well/test condition. […]
Assignment: determine reported pIC50 for the given compounds.
FYI, pIC50 means -log10 of a concentration in mol per litre.

[in] Requested field: pIC50. Item: Cc1cccc(C23CCN(C(=O)[C@H]4C[C@]5(COC(=O)N5)C4)CC2C3)c1 (mixture of isomers) [Example 43]
[out] 8.09

[in] Input CC(C)c1ccc([C@H]2[C@@H]3CN(C(=O)[C@H]4C[C@]5(CCC(=O)N5)C4)C[C@@H]32)cc1 [Example 91]
[out] 7.70

[in] And then Cc1cc(C2CC2)ccc1[C@H]1[C@@H]2CN(C(=O)[C@H]3C[C@]4(COC(=O)N4)C3)C[C@@H]21 [Example 109] , what is it?
[out] 8.80

[in] Please give the result for O=C1N[C@]2(CO1)C[C@H](C(=O)N1CC3CC3(c3ccc(C(F)(F)F)cc3)C1)C2 (mixture of isomers) [Example 24] too.
[out] 7.82

[in] Queued: O=C1N[C@]2(CO1)C[C@H](C(=O)N1CCC3(c4ccc(C5CC5)cc4)CC3C1)C2 (mixture of isomers) [Example 66]
[out] 9.16

[in] # repeat for CC1(c2ccc([C@]34C[C@H]3CN(C(=O)[C@H]3C[C@]5(CCC(=O)N5)C3)C4)cc2)CC1 (stereo in doubt) [Example 96]
[out] 8.07

[in] Next record, please: CC(C)c1cccc([C@@]23C[C@@H]2CN(C(=O)[C@H]2C[C@]4(COC(=O)N4)C2)C3)c1 (stereo in doubt) [Example 7]
[out] 8.30

[in] Could you do the same for CC(C)c1cccc(C23CCN(C(=O)[C@H]4C[C@]5(COC(=O)N5)C4)CC2C3)c1 (mixture of isomers) [Example 73] , please?
[out] 9.60

[in] # repeat for Cc1cccc([C@@]23CCN(C(=O)[C@H]4C[C@]5(COC(=O)N5)C4)C[C@@H]2C3)c1 (stereo in doubt) [Example 45]
[out] 7.49

[in] Next compound up: Cc1ccccc1[C@H]1[C@@H]2CN(C(=O)[C@H]3C[C@]4(COC(=O)N4)C3)C[C@@]21C (racemic) [Example 97]
[out] 6.74

----------
Give IC50 for every item shown.
target: human MGL from HeLa cells (Homo sapiens (Human), UniProt Q99685); experiment: MGL in vitro activity assay ([glycerol-1,3-3H]-oleoyl glycerol cleavage, activated carbon filter); assay type: biochemical; conditions: 300 nM [Glycerol-1,3-3H]-oleoyl glycerol, endogenously expressed MGL from HeLa cells, one hour incubation; read-out: MGL IC50
Entry rule: numbers only, all in nM.

[in] I have this compound here, O=C1N[C@]2(CO1)C[C@H](C(=O)N1CC3CC3(c3ccc(OC(F)(F)F)cc3)C1)C2 (mixture of isomers) , and I need its recorded IC50.
[out] 16

[in] Can you handle CC(C)(C)c1cccc([C@H]2[C@@H]3CN(C(=O)[C@H]4C[C@]5(CCC(=O)N5)C4)C[C@@H]32)c1 next?
[out] 7.2

[in] Proceed to O=C1N[C@]2(CO1)C[C@H](C(=O)N1CC3CC3(c3cccc(OC(F)(F)F)c3)C1)C2 (mixture of isomers)
[out] 11
